Test system: A498
Experiment: NCI tumour cell line growth inhibition, 48 h
Calls of active or inactive are those of the source. Rule as the data show it: active = GI50 up to about 1.1 µM and inactive = higher.

{"columns": ["molecule", "measurement_target", "GI50"],
 "data": [
  ["Cc1ccc(NC(=O)/C=C/c2ccccc2)c(C)c1", "A498", "> 100 µM (inactive)"],
  ["C=CCN(CC=C)CC(C(C)=O)C(c1ccccc1)c1c(O)c2ccccc2oc1=O (configuration not stated)", "A498", "> 100 µM (inactive)"],
  ["COc1ccc2c(c1)C(N)=C(c1ccccc1)C2=O", "A498", "> 100 µM (inactive)"],
  ["COc1cc(/C=C2\\CCc3ccccc3C2=O)ccc1O", "A498", "> 10 µM (inactive)"],
  ["Cc1ccccc1NC(=S)N/N=C1\\C(=O)Nc2ccccc21", "A498", "86.3 µM (inactive)"],
  ["COC(=O)C1=CC2C=CC(C1C(=O)OC)C1C(C(=O)OC)=C(C(=O)OC)C(C(=O)OC)=C(C(=O)OC)C21OC (configuration not stated)", "A498", "> 100 µM (inactive)"],
  ["CCOC(=O)C(=O)Nc1ccccc1C(C)C", "A498", "> 100 µM (inactive)"],
  ["CCOC(=O)CCC(=O)C1c2cccc(O)c2C(=O)c2c(O)cc(C)cc21 (configuration not stated)", "A498", "2.28 µM (inactive)"],
  ["O=[N+]([O-])C(C(Cl)=C(Cl)Cl)=C(n1nnc2ccccc21)n1nnc2ccccc21", "A498", "> 57.9 µM (inactive)"],
  ["COc1cc(C(=O)OC2CC34CCNC35CC(OC5(OC)C2O)c2cc3c(cc24)OCO3)ccc1O (configuration not stated)", "A498", "> 100 µM (inactive)"],
  ["CNC(=O)OCc1nccc2c(C)c3[nH]c4ccc(OC)cc4c3cc12", "A498", "6.7 µM (inactive)"],
  ["NCc1nnn(Cc2ccccc2)c1N", "A498", "> 100 µM (inactive)"]
]}

---

Below are GI50 values recorded for HCT-15.

{"columns": ["compound", "GI50"],
 "data": [
  ["COc1c(O)cc2ccnc3c2c1N(C)C=C3", "> 100 µM"],
  ["CCOC(=O)C1S/C(=N\\c2ccc(C)c(C)c2)N=C1C (stereo unspecified)", "> 100 µM"],
  ["O=C1NC(=N/c2ccccc2)/C(=N\\c2ccccc2)N1c1ccccc1", "14.5 µM"],
  ["Cc1ccc(/C=C/C(=O)c2ccc([N+](=O)[O-])cc2)cc1", "> 100 µM"],
  ["COC(=O)C1=CC2C=CC(C1C(=O)OC)C1C(C(=O)OC)=C(C(=O)OC)C(C(=O)OC)=C(C(=O)OC)C21OC (stereo unspecified)", "> 100 µM"],
  ["CCN(CC)CCCNc1nncc2c(C)c3[nH]c4ccccc4c3cc12", "7.57 µM"]
]}

---

# key: entry, value: GI50
Tested on: TK-10
Test: NCI tumour cell line growth inhibition, 48 h
The source made the active and inactive calls. Rule as the data show it: active = GI50 up to about 1.1 µM and inactive = higher.

{"columns": ["smiles_string", "GI50"],
 "data": [
  ["CN1C(=N\\S(=O)(=O)c2ccc(Cl)cc2)/C(=N/N=P(c2ccccc2)(c2ccccc2)c2ccccc2)c2ccccc21", "> 100 µM (inactive)"],
  ["CC1=NN(C(=O)c2ccc(Cl)cc2)C(=O)/C1=C/c1cccc([N+](=O)[O-])c1", "> 100 µM (inactive)"],
  ["COC(=O)c1c(O)ccc2c1c1c(n2Cc2cc(OC)cc(OC)c2)C(=O)c2ccccc2C1=O", "13 µM (inactive)"]
]}

---

Test system: HCT-116
Assay: NCI tumour cell line growth inhibition, 48 h
Structures can show the parent of a compound that is named as a salt. The source made the active and inactive calls. Rule as the data show it: active = GI50 up to about 1.1 µM and inactive = higher.
Classes used: yes (1) for active, no (0) for inactive

{"columns": ["compound", "assigned_category"],
 "data": [
  ["NNC(=O)c1nnn(N)c1S", "no (0)"],
  ["CCCCC(=O)Nc1ccc2cc(C(=O)OC)c(ON3C(=O)c4ccccc4C3=O)nc2n1", "no (0)"],
  ["CCOC(=O)c1c(N2CCOCC2)[nH]c(=O)c(C(c2c(Cl)cccc2Cl)c2c(O)c(C(=O)OCC)c(N3CCOCC3)[nH]c2=O)c1O", "no (0)"],
  ["O=C1c2c(O)cccc2-c2nn(CCNCCO)c3ccc(NCCNCCO)c1c23 [LOSOXANTRONE HYDROCHLORIDE]", "yes (1)"],
  ["CC(C(=O)c1ccncc1)c1ccccn1 (configuration not stated)", "no (0)"],
  ["COc1ccccc1OCC(=N/NC(=O)c1ccncc1)/N=C/c1cccnc1", "no (0)"],
  ["COC(=O)C1(CCCCCBr)CCCCCCCCCCC1=O (configuration not stated)", "no (0)"],
  ["CC[C@H]1C=CCC[C@@]2(C[C@@H]3CC[C@@H]4[C@H](C(=O)OCCCCCCCCCCCCCCCC(=O)O)[C@]5(CCC[C@@H](C)O5)NC(=[N+]34)N2)O1", "yes (1)"],
  ["COc1ccc2cccc(C(=O)c3ccc(C)c4c3CCC4)c2c1", "no (0)"],
  ["CCOC(=O)Nc1ccc(S(=O)(=O)OC)cc1.CCOC(=O)Nc1ccc(S(=O)(=O)OC)cc1.NC(=O)NCCO", "no (0)"],
  ["O=C1Nc2ccccc2S/C1=C\\c1cccc(C(F)(F)F)c1", "no (0)"],
  ["CC(C)OP(=O)(OC(C)C)/C(C#N)=C/c1ccco1", "no (0)"],
  ["CO[C@H]1O[C@@H]2CO[C@@H](c3ccccc3)O[C@H]2[C@@H]2C/C=C\\CCC[C@@]12O", "no (0)"],
  ["Clc1nc(Cl)c(CBr)c(Cl)n1", "no (0)"],
  ["O=C1C=C(Nc2ccccc2C(=O)CC(=O)C(=O)Nc2cccc(C(F)(F)F)c2)c2ccccc2C1=O", "no (0)"],
  ["COC(=O)c1c(O)ccc2c1c1c(n2Cc2cc(OC)cc(OC)c2)C(=O)c2ccccc2C1=O", "no (0)"],
  ["CC1=NN(C(=O)c2ccccc2O)C(=O)/C1=C/c1ccccc1O", "yes (1)"],
  ["CC1(C)S[C@@H]2[C@H](NC(=O)CCC[C@@H](N)C(=O)O)C(=O)N2[C@H]1C(=O)O", "no (0)"],
  ["COc1ccc2c(c1)C(OC)C1c3c(cc4c(c3-2)OCO4)CCN1C (configuration not stated)", "no (0)"],
  ["CC(=O)CCC1(C(=O)OCC(C)C)CCCC1=O (configuration not stated)", "no (0)"],
  ["COc1cc([C@@H]2c3cc4c(cc3[C@H](OC3OC5COC(C(C)C)OC5C(O)C3O)C3COC(=O)[C@@H]32)OCO4)cc(OC)c1OC (some centres not stated)", "no (0)"],
  ["CC(C)(C)c1ccc(O)c(C[N+](C)(C)C)c1", "no (0)"],
  ["O=C1NC(=N/c2ccccc2)/C(=N\\c2ccccc2)N1c1ccccc1", "no (0)"],
  ["O=C1c2cccc3c2C(=O)c2c(cccc21)OCCOCCOCCOCCO3", "no (0)"],
  ["Oc1ccc(O)c(CNc2ccccc2)c1", "no (0)"],
  ["COC(=N)c1ncn(Cc2ccccc2)c1N", "no (0)"],
  ["Cc1c(C2=NN=C(/N=N/c3c(O)cccc3O)/C2=C/c2ccccc2)c(=O)n(-c2ccccc2)n1C", "no (0)"],
  ["CC(=O)c1ccc(NC(=O)/C(CC(=O)c2sc(-c3cccnc3)nc2C)=N/NC(N)=O)cc1", "no (0)"],
  ["O=[N+]([O-])C(C(Cl)=C(Cl)Cl)=C(n1nnc2ccccc21)n1nnc2ccccc21", "no (0)"],
  ["CCOC(=O)c1c(Br)c(-c2ccc([N+](=O)[O-])cc2)c(Br)n1C", "no (0)"],
  ["[O-][Cl+3]([O-])([O-])O.c1ccc(/N=c2\\nc(N3CCOCC3)ss2)cc1", "no (0)"],
  ["O=C(N[C@H]1CC2(C=C(I)C(=O)C(I)=C2)OC1=O)OCc1ccccc1", "no (0)"]
]}

---

Test system: NCI-H522
Test: NCI tumour cell line growth inhibition, 48 h
Calls of active or inactive are those of the source. No stated cut-off is given here; in the data, active = GI50 up to about 1.1 µM and inactive = higher.
Classes used: true = active, false = inactive

{"columns": ["compound", "measurement_target", "assigned_category"],
 "data": [
  ["O=C(Nc1ccccc1C(=O)NCc1ccccc1)/C(=C/c1ccccc1)NC(=O)c1ccccc1", "NCI-H522", "false"],
  ["CCOC(=O)CCC(=O)C1c2cccc(O)c2C(=O)c2c(O)cc(C)cc21 (stereo unspecified)", "NCI-H522", "true"],
  ["CCO/C=C1\\SC(=S)N(c2ccc(OCC)cc2)C1=O", "NCI-H522", "false"],
  ["CCCCN1C=CN2c3nc4cc(C)c(C)cc4n3C(C(=O)OC)=C(C(=O)OC)C12 (stereo unspecified)", "NCI-H522", "false"],
  ["c1c(N2CCOCC2)s[s+]c1N1CCOCC1", "NCI-H522", "false"],
  ["COc1ccc(CCNCc2cccc(OC)c2OC)cc1OC", "NCI-H522", "false"]
]}
